Test system: Klebsiella pneumoniae
TEST_PROTOCOL: Compound was tested for its ability to inhibit the growth of a clinical strain of Klebsiella pneumoniae
Assay type: functional, organism-based
pIC50: −log10 of the molar value.
READOUT_NAME: pIC50

Ask: Bench note: what pIC50 did CCSC[C@H]1OC(O)[C@H](O)[C@@H]1O (stereo partly specified) show?
Reply: ~1.82

* * *

Test system: Plasmodium falciparum
TEST_PROTOCOL: Inhibition of Plasmodium falciparum
Format: functional, organism-based
pIC50: −log10 of the molar value.
READOUT_NAME: pIC50

Ask: pIC50 of CCSC[C@H]1OC(O)[C@H](O)[C@@H]1O (stereo partly specified) on Plasmodium falciparum?
Reply: ~3.52
